Recorded values, source the RNAGym collection of RNA variant scans (doi:10.1101/gr.219683.116).

B1: mRNA-splicing (parent)
chain: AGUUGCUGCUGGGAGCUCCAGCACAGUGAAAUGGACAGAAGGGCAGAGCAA

variants of: B1; test: exon inclusion enrichment index; higher = more inclusion; WT1 exon 5 minigene, HEK293
I would appreciate it if you labelled entries met when exon inclusion enrichment index is 0.08 or higher, otherwise not met.

Query: Determine whether measured exon inclusion enrichment index meets or exceeds 0.08 for G5C C6U G8C C9U U10C G21A C22A
Response: met

Query: Could you tell me if the measured exon inclusion enrichment index of G5U C9U reaches 0.08 or more?
Response: met

Query: State whether the measured exon inclusion enrichment index reaches 0.08, counting equality as reaching it, for G5C C6U G8C C9U U10C C19A A20U
Response: met

Query: Does the reported exon inclusion enrichment index for G5C C6A U7C G8A U10A A35C C36G fall at or above the 0.08 mark?
Response: met

Query: Form field: exon inclusion enrichment index at least 0.08? Entry: G5C C6A U7C G8A U10A C36G A37G
Response: not met

Query: Form field: exon inclusion enrichment index at least 0.08? Entry: G5A C6G U7G C9A C18U C19A
Response: not met

Query: Determine whether this variant has exon inclusion enrichment index no lower than 0.08: G5U G8U C9U A14U G15C
Response: not met

Query: Reported exon inclusion enrichment index at or above 0.08? C6A U7A C9A U10A A29U A30U
Response: met

Query: Test whether the variant G5A U7C G8A U10C A47U G48A records exon inclusion enrichment index of 0.08 or higher.
Response: met

Query: State whether the measured exon inclusion enrichment index reaches 0.08, counting equality as reaching it, for G5A U7C G8A U10C A37C G38C
Response: met

Query: Would you say G5C C6A U7C G8A U10A A30U A31C shows exon inclusion enrichment index at minimum 0.08?
Response: met

Query: Does G5A C6U U7A G8U C9A U10G G11A have a reported exon inclusion enrichment index of at least 0.08?
Response: not met

Query: Kindly determine if exon inclusion enrichment index recorded for G5C C6A U7C G8C C9U U10C is above or exactly 0.08.
Response: met

Query: Given G5A C6G U7G C9A A14G G15C , state whether its exon inclusion enrichment index is at least 0.08.
Response: not met

Query: Please check the record G5C C6U G8C C9U U10C U32C G33U and state if its exon inclusion enrichment index is at or above 0.08.
Response: met

Query: Check the entry A39G : does exon inclusion enrichment index equal or exceed 0.08?
Response: not met

Query: Exam item: decide whether the reported exon inclusion enrichment index for G5A U7C G8A U10C C36G is at least 0.08.
Response: met

Query: Could you verify whether the entry C6A U7C C9A U10C G42C G43U shows exon inclusion enrichment index of no less than 0.08?
Response: met

Query: Is exon inclusion enrichment index at least 0.08? Consider G5A C6G U7G C9A A29G A30C
Response: not met

Query: Tell me whether exon inclusion enrichment index is at least 0.08 here: A47C G48A
Response: not met

Query: State whether the measured exon inclusion enrichment index reaches 0.08, counting equality as reaching it, for G5A U7C G8A U10C G26A U27C
Response: met

Query: Decide: is the reported value of exon inclusion enrichment index for G5A C6G U7G C9A C16G U17C equal to or greater than 0.08?
Response: not met

Query: Given the entry U4G G5U C6A U7C C9A U10C , answer whether its exon inclusion enrichment index meets or surpasses 0.08.
Response: met

Query: Does the reported exon inclusion enrichment index for G46A fall at or above the 0.08 mark?
Response: met
